Taken from paper PMC5969521.

target: Arp7;Arp9;Sth1(301-1097) (budding yeast;budding yeast;budding …, UniProt Q12406;Q05123;P32597 1-477;1-467;301-1097, ||); assay: fluorescence anisotropy; 1 mM AMPPNP; Anisotropy: 20 mM HEPES pH 7.5, 50 mM NaCl, 2.5 mM MgCl2, 5% glycerol, 1 mM DTT, 0.1 mg/mL BSA, 1 mM AMPPNP or ADP, 50 nM DNA, 20 C; EMSA: 20 mM HEPES pH 7.5, 50 mM NaCl, 1 mM MgCl2, 5% glycerol, 1 mM DTT, 0.1 mg/mL BSA, 1 mM ADP or AMPPNP, room temperature; conditions: protein: recombinant;recombinant;recombinant; copies: 1;1;1; label: 5'-fluorescein; strands 21 and 22 nt: 21 bp with 1 nt 5' overhang (T) on strand 2
Sequence (Q12406 whole entry, chain 1 of 3): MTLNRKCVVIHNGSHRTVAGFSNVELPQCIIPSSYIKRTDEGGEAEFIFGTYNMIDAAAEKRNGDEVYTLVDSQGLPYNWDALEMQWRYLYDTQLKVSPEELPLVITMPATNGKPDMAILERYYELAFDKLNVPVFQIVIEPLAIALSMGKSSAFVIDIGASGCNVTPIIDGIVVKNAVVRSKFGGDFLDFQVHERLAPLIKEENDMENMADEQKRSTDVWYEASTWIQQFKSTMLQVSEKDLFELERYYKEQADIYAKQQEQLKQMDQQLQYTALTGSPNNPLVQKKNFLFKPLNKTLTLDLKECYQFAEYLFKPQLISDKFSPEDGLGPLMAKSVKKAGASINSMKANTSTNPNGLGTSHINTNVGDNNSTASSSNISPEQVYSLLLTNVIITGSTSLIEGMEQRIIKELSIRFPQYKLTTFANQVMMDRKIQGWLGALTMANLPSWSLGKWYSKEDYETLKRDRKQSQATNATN
Sequence (Q05123 whole entry, chain 2 of 3): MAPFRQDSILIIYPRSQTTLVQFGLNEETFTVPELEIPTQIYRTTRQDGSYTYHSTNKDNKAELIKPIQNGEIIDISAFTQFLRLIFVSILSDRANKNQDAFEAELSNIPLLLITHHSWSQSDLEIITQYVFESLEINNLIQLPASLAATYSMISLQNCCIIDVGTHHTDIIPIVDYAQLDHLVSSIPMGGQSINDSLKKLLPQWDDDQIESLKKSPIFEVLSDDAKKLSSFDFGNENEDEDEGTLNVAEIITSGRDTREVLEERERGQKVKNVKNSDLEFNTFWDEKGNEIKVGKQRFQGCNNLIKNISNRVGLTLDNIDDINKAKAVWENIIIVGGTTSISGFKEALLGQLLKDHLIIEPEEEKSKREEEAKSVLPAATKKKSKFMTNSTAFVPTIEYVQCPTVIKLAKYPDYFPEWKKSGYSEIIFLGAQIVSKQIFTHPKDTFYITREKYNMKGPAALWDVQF
Sequence (P32597 301-1097, chain 3 of 3): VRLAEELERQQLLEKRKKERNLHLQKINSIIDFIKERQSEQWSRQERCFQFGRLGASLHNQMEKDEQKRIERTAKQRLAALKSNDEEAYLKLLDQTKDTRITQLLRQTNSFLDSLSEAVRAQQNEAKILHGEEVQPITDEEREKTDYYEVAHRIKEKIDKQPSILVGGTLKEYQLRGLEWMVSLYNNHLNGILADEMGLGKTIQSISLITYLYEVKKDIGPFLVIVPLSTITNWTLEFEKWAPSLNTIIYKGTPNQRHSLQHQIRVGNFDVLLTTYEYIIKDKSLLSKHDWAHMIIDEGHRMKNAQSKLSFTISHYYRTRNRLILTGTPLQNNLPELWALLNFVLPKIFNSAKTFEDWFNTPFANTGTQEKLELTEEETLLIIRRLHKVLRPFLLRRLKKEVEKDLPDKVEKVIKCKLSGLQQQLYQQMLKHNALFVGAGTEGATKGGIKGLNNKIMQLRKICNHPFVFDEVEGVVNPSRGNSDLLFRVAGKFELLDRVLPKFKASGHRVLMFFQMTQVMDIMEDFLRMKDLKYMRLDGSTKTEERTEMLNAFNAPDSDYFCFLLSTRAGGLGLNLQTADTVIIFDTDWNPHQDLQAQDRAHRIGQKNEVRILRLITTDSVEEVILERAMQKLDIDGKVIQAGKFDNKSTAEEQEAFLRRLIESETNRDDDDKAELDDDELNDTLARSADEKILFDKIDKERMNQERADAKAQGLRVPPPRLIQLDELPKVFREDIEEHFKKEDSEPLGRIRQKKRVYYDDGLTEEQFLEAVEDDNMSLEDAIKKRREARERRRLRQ
observed-property: Kd

Report Kd, nothing else, for this binder: fluorescein DNA duplex (dsDNA) DNA 1: TCCATGTCCATGGATACGTGG DNA 2: TCCACGTATCCATGGACATGGA 3 µM
